tested on: NCI-H226; assay: Antiproliferative activity against human NCI-H226 cells assessed as cell growth inhibition incubated for 72 hrs by MTT assay; assay type: functional, cell-based; conditions: NCI-H226, 72 h
Catalogue of IC50 values
MEASURED METRIC: IC50 (µM)

{"columns": ["QUERY SMILES", "UNIT SPEC", "OBSERVED MEASUREMENT"],
 "data": [
  ["COc1ccc(/C=C/C(=O)c2cc(OC)c(OC)c(OC)c2)cc1O", "µM", 4.38],
  ["COc1ccc(/C=C(\\C)C(=O)c2cc(OC)c(OC)c(OC)c2)cc1OCCCCCCCC(=O)NO", "µM", 23.2],
  ["COc1ccc(/C=C(\\C)C(=O)c2cc(OC)c(OC)c(OC)c2)cc1OCCCC(=O)NO", "µM", 7.54],
  ["COc1ccc(/C=C/C(=O)c2cc(OC)c(OC)c(OC)c2)cc1OCCCCCCC(=O)NO", "µM", 15.7]
]}
